Please respond with reported parasite growth remaining, % of DMSO control (lower = more inhibition) for every item in the list.
test protocol: qHTS profiling of the MIPE4 collection as inhibitors of Plasmodium falciparum (DD2) proliferation (AID 743345)
condition label: P. falciparum Dd2 in erythrocytes, SYBR Green DNA, 72 h; at 28.5 µM (top of the series) unless noted
Respond with the bare value in %.

-- ask Given the entry CCCCCCCN(CC)CCCC(O)c1ccc(NS(C)(=O)=O)cc1 (stereo not given) , report its measured parasite growth remaining, % of DMSO control (lower = more inhibition).
-- reply 83.7

-- ask Try the compound CCCCCN=C(N)NN=Cc1c[nH]c2ccc(OC)cc12
-- reply 7.01

-- ask Try the compound COC(=O)[C@@H]1[C@H]2C[C@@H]3c4[nH]c5ccccc5c4CCN3C[C@@H]2CC[C@@H]1O
-- reply 93.2

-- ask Try the compound CN1C(C(=O)Nc2ccccn2)=C(O)c2sc(Cl)cc2S1(=O)=O
-- reply 86.4

---

test protocol: Quantitative High-Throughput drug screen in 47 multiple myeloma cell lines against the NCATS MIPE library collection: RPMI8226_ATCC cell viability assay (AID 1919871); note: nearly all actives have a fitted effect of over 30% in size
condition label: RPMI8226 myeloma viability, CellTiter-Glo ATP luminescence, 48 h; series mostly up to 45.8 µM
Inconclusive results are not listed. Active and inactive are the calls of the source. The call rests on the fitted dose curve; in most records, active means well fitted cell-killing curve with a large enough effect; inconclusive means small, poorly fitted or top-dose-only effect, or effect the other way; inactive means no such curve, though single readings can be large or run the other way.
Select the matching outcome among true = active, false = inactive

-- ask For Cc1cc(O)c2c(c1)C(=O)c1cccc(O)c1C2=O , which call appears in the assay record?
-- reply false

-- ask Try the molecule CC(C)(O)CC[C@@H](O)[C@](C)(O)[C@H]1CC[C@@]2(O)C3=CC(=O)[C@@H]4C[C@@H](O)[C@@H](O)C[C@]4(C)[C@@H]3CC[C@]12C
-- reply false

-- ask Try the molecule CCC(C=C[C@@H]1OC(=O)C=C[C@H]1C)=C[C@H](C)CC=CC(C)=C[C@@H](C)C(=O)[C@@H](C)[C@H](O)[C@@H](C)CC(C)=CC(=O)O
-- reply true

-- ask Try the molecule Cc1cn([C@@H]2O[C@H](CO)[C@@H](O)[C@H]2F)c(=O)[nH]c1=O
-- reply false

---

test protocol: qHTS of pediatric cancer cell lines to identify multiple opportunities for drug repurposing: Confirmatory screen for Rh41 cells (AID 1347123);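 note: 48 h compound exposure; nearly all actives have a fitted effect of over 60% in size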
condition label: Rh41 rhabdomyosarcoma cells, viability/cytotoxicity qHTS; series mostly up to 45.9 µM
Records with an inconclusive call do not appear. Active and inactive are the calls of the source. Calls follow the shape of the dose curve; as a rule, active = well fitted cell-killing curve with a large enough effect; inconclusive = small, poorly fitted or top-dose-only effect; inactive = no such curve, though single readings can be large or run the other way. Starred links: 1 amine or outer side, 2 acyl side, 3 side chain; linkers in the order of their positions; H or OH if unused. Positions of bridges follow the written chain, without caps; N, C: chain ends. Non-standard residues stand in square brackets, D forms with d. Residues, ends and D or L forms follow the SMILES beside them. Chains are numbered I, II in the order given. Actinocin(9to1) = Cc1c2oc3c(C)ccc(C(=O)[*:1])c3nc-2c(C(=O)[*:2])c(N)c1=O; NMeV = CN[CH](C(=O)O)C(C)C; Sar = CNCC(=O)O
Select the matching outcome among active, inactive

-- ask For CCC(C(=O)O)C1CCC(C)C(C(C)C(O)C(C)C(=O)C(CC)C2OC3(C=CC(O)[C@@]4(CC[C@](C)(C5CC[C@@](O)(CC)C(C)O5)O4)O3)C(C)CC2C)O1 (stereo not given in full) , which call appears in the assay record?
-- reply active

-- ask Try the molecule Oc1ccc(-c2ccc(-c3cc(Nc4cccc(CNC5CC5)c4)n[nH]3)cc2)c(O)c1
-- reply active

-- ask Try the molecule COc1cccc2c1C(=O)c1c(O)c3c(c(O)c1C2=O)C[C@@](O)(C(C)=O)C[C@H]3O[C@H]1C[C@H](N)[C@H](O)[C@H](C)O1
-- reply active

-- ask Try the molecule COC(=O)C1C2CC3c4[nH]c5cc(OC)ccc5c4CCN3CC2CC(OC(=O)c2cc(OC)c(OC)c(OC)c2)C1OC (stereo not given)
-- reply active

-- ask Try the molecule Cn1cc(-c2cnn3c(N)c(Br)c([C@H]4CCCNC4)nc23)cn1
-- reply active

-- ask Try the molecule COc1ccc(C(C)=O)c(O)c1
-- reply inactive

-- ask Try the molecule Cc1ccc([N+](=O)[O-])cc1S(=O)(=O)N(C)N=Cc1cnc2ccc(Br)cn12
-- reply active

-- ask Try the molecule COc1ccc(Nc2cc(-c3cnc(N)nc3)nc(N3CCOCC3)n2)cn1
-- reply active

-- ask Try the molecule CS(=O)(=O)N1CCc2c(-c3cnc(N)nc3)nc(N3CCOCC3)nc21
-- reply active

-- ask Try the molecule NC(=O)Nc1cc(-c2ccc(CN3CCOCC3)cc2)sc1C(N)=O
-- reply active

-- ask Try the molecule Nc1nc2c(c(=O)[nH]1)N(C=O)[C@H](CNc1ccc(C(=O)N[C@@H](CCC(=O)O)C(=O)O)cc1)CN2
-- reply inactive

-- ask Try the molecule O=S(=O)(O)CCSSCCS(=O)(=O)O
-- reply inactive

-- ask Try the molecule Cc1c2oc3c(C)ccc(C(=O)NC4C(=O)NC(C(C)C)C(=O)N5CCCC5C(=O)N(C)CC(=O)N(C)C(C(C)C)C(=O)OC4C)c3nc-2c(C(=O)NC2C(=O)NC(C(C)C)C(=O)N3CCCC3C(=O)N(C)CC(=O)N(C)C(C(C)C)C(=O)OC2C)c(N)c1=O (stereo not given) (I: TVP[Sar][NMeV] / II: TVP[Sar][NMeV]; ester I:1-I:C, II:1-II:C; linker I:N-II:N via Actinocin(9to1); configuration not given here)
-- reply active

-- ask Try the molecule C[C@@H](Oc1ccc2[nH]nc(C=Cc3cnn(CCO)c3)c2c1)c1c(Cl)cncc1Cl
-- reply active

-- ask Try the molecule CN[C@@H]1C[C@H]2O[C@@](C)([C@H]1OC)n1c3ccccc3c3c4c(c5c6ccccc6n2c5c31)C(=O)N[C@H]4O
-- reply active

---

test protocol: qHTS of pediatric cancer cell lines to identify multiple opportunities for drug repurposing: Primary screen for BT-37 cells (AID 1347094)
condition label: BT-37 viability, CellTiter-Glo luminescence, 48 h; series mostly up to 57.3 µM
Records with an inconclusive call do not appear. Calls of active or inactive are those of the source. Calls follow the shape of the dose curve; as a rule, active = well fitted cell-killing curve with a large enough effect; inconclusive = small, poorly fitted or top-dose-only effect; inactive = flat fitted curve, though single readings scatter.
Select the matching outcome among active, inactive

-- ask For COC1=C2C[C@@H](C)C[C@H](OC)[C@@H](O)[C@@H](C)C=C(C)[C@H](OC(N)=O)[C@@H](OC)C=CC=C(C)C(=O)NC(=CC1=O)C2=O , which call appears in the assay record?
-- reply active

-- ask Try the compound OC[C@@H](O)[C@@H](O)[C@H](O)[C@@H](O)CO
-- reply inactive

-- ask Try the compound COc1ccc(Nc2cc(-c3cnc(N)nc3)nc(N3CCOCC3)n2)cn1
-- reply active

-- ask Try the compound COc1cc(OC)cc(-c2ccc3ncc4ccc(=O)n(-c5ccc(N6CCNCC6)c(C(F)(F)F)c5)c4c3c2)c1
-- reply active

-- ask Try the compound CCc1cnn2c(NCc3ccc[n+]([O-])c3)cc(N3CCCC[C@@H]3CCO)nc12
-- reply active

-- ask Try the compound CCC[C@H]1C[C@H](C(=O)N[C@@H]([C@@H]2O[C@@H](SC)[C@@H](O)[C@@H](O)[C@@H]2O)[C@H](C)Cl)N(C)C1
-- reply inactive

-- ask Try the compound O=c1ccn([C@@H]2O[C@H](CO)[C@H](O)[C@@H]2F)c(=O)[nH]1
-- reply inactive

-- ask Try the compound C=CC[C@@H]1C=C(C)C[C@H](C)C[C@H](OC)[C@H]2O[C@@](O)(C(=O)C(=O)N3CCCC[C@H]3C(=O)O[C@H](C(C)=C[C@@H]3CC[C@H](O)[C@H](OC)C3)[C@@H](C)[C@@H](O)CC1=O)[C@@H](C)C[C@@H]2OC
-- reply active

---

test protocol: qHTS of pediatric cancer cell lines to identify multiple opportunities for drug repurposing: Primary screen for Rh41 cells (AID 1347108); note: nearly all actives have a fitted effect of over 70% in size
condition label: Rh41 rhabdomyosarcoma viability, CellTiter-Glo luminescence, 48 h; series mostly up to 46 µM
Description: Drug repurposing or repositioning has been offered as a strategy for drug development in oncology programs. This approach has special potential for childhood cancers and other rare or orphan diseases, where the expected return on new drug development has been a disincentive to pharmaceuticals. […] We employed a titration-based paradigm (quantitative high-throughput screening or qHTS), where all compounds were tested at multiple concentrations for their effect on cell viability. […]
Records with an inconclusive call do not appear. Calls of active or inactive are those of the source. The call rests on the fitted dose curve; in most records, active means well fitted cell-killing curve with a large enough effect; inconclusive means small, poorly fitted or top-dose-only effect; inactive means no such curve, though single readings can be large or run the other way.
Select the matching outcome among active, inactive

-- ask For Cc1cnc(NC(=O)Nc2cc(Br)c(C)cc2OC[C@@H]2CNCCO2)cn1 , which call appears in the assay record?
-- reply inactive

-- ask Try the compound CC(=O)N[C@@H]1[C@H](O[C@@H]2c3ccc(c(Cl)c3)Oc3cc4cc(c3O[C@H]3O[C@H](CO)[C@@H](O)[C@H](O)[C@H]3NC(=O)CCCCCCCC(C)C)Oc3ccc(cc3Cl)C[C@H]3NC(=O)[C@H](N)c5ccc(O)c(c5)Oc5cc(O)cc(c5)[C@H](NC3=O)C(=O)N[C@H]4C(=O)N[C@H]3C(=O)N[C@@H]2C(=O)N[C@@H](C(=O)O)c2cc(O)cc(O[C@H]4O[C@H](CO)[C@@H](O)[C@H](O)[C@H]4O)c2-c2cc3ccc2O)O[C@H](CO)[C@@H](O)[C@@H]1O
-- reply inactive

-- ask Try the compound CCCCCCCCCCCCCCCC(=O)OC[C@@H](NC(=O)C(Cl)Cl)[C@H](O)c1ccc([N+](=O)[O-])cc1
-- reply inactive

-- ask Try the compound COC(=O)[C@@H]1CC2=CC(=O)CC[C@]2(C)[C@@]23O[C@@H]2C[C@@]2(C)[C@H](CC[C@@]24CCC(=O)O4)[C@@H]13
-- reply inactive

-- ask Try the compound CN(C)c1ccc2cc(C(=O)N[C@@H](CCCN=C(N)CCl)C(=O)NCc3ccccc3)ccc2c1
-- reply active

-- ask Try the compound c1ccc2c(Oc3nc(Nc4ccc(N5CCOCC5)cc4)c4ncn(C5CCCCC5)c4n3)cccc2c1
-- reply inactive

-- ask Try the compound C[C@@]12C[C@@]3(O)O[C@@H](O1)[C@]1(COC(=O)c4ccccc4)[C@@H]3C[C@@]12O[C@@H]1O[C@H](CO)[C@@H](O)[C@H](O)[C@@H]1O
-- reply inactive

-- ask Try the compound CC(C)N(CC[C@H](c1ccccc1)c1cc(CO)ccc1O)C(C)C
-- reply inactive

-- ask Try the compound CCS(=O)(=O)Nc1ccc2[nH]c(O)c(C(=Nc3ccc(CN4CCCCC4)cc3)c3ccccc3)c2c1
-- reply active

-- ask Try the compound O=C(C=CC=Cc1ccc2c(c1)OCO2)N1CCCCC1
-- reply inactive

-- ask Try the compound OCC(O)C(O)C(O)CO (stereo not given)
-- reply inactive

-- ask Try the compound COC(=O)[C@H](CCCN=C(N)N)NS(=O)(=O)c1ccc(C)cc1
-- reply inactive

-- ask Try the compound CCCCCCCCc1ccc(CCC(N)(CO)CO)cc1
-- reply active

-- ask Try the compound Cc1nc(NC(=O)N2CCC[C@@H]2C(N)=O)sc1-c1ccnc(C(C)(C)C(F)(F)F)c1
-- reply active

-- ask Try the compound c1cc(N[C@@H]2CCNC2)nc(-c2cnc3ccc(-c4cn[nH]c4)cn23)c1
-- reply active
